- Experiment summary: Half life in rat liver microsomes
- Type: ADME, Microsome
Property: half-life (min)

The following compounds have reported results that may help.
O=S(=O)(c1ccccc1)N(CC(F)(F)F)c1ccc(C(O)(C(F)(F)F)C(F)(F)F)cc1 | 30
Cc1nc2c(C(F)(F)F)cccn2c1-c1cccc(Oc2cccc(S(C)(=O)=O)c2)c1 | 30
CS(=O)(=O)c1cccc(Oc2cccc(-c3c(CN4CCCCC4)nc4c(C(F)(F)F)cccn34)c2)c1 | 5
CS(=O)(=O)c1cccc(Oc2cccc(-c3c(CN4CCSC4)nc4c(C(F)(F)F)cccn34)c2)c1 | 23
CCc1nc2c(C(F)(F)F)cccn2c1-c1cccc(Oc2cccc(S(C)(=O)=O)c2)c1 | 30

I. CCS(=O)(=O)c1cccc(Oc2cccc(-c3c(C)nc4c(C(F)(F)F)cccn34)c2)c1
II. CS(=O)(=O)c1cccc(Oc2cccc(-c3c(Cc4ccccc4)nc4c(C(F)(F)F)cccn34)c2)c1
stdin: Lab note: check whether I or II shows the higher recorded half-life. Give the chosen item's label as your response.
stdout: I

====

- System: THP-1
- Experiment summary: Induction of ABCA1 mRNA upregulation in human THP1 cells relative to T0901317
- Assay type: functional
Property: Efficacy (%)
Record the value in %, omitting the unit from your answer.

CCS(=O)(=O)c1cccc(Oc2cccc(-c3c(C)nc4c(C(F)(F)F)cccn34)c2)c1 | 100

stdin: Please state recorded Efficacy (tested on THP-1) of O=S(=O)(c1ccccc1)N(CC(F)(F)F)c1ccc(C(O)(C(F)(F)F)C(F)(F)F)cc1
stdout: 100

stdin: Please state recorded Efficacy (tested on THP-1) of CS(=O)(=O)c1cccc(Oc2cccc(-c3c(CN4CCSC4)nc4c(C(F)(F)F)cccn34)c2)c1
stdout: 98

stdin: Please state recorded Efficacy (tested on THP-1) of CS(=O)(=O)c1cccc(Oc2cccc(-c3c(CN4CCCCC4)nc4c(C(F)(F)F)cccn34)c2)c1
stdout: 100

stdin: Please state recorded Efficacy (tested on THP-1) of CS(=O)(=O)c1cccc(Oc2cccc(-c3c(Cc4ccccc4)nc4c(C(F)(F)F)cccn34)c2)c1
stdout: 105

stdin: Please state recorded Efficacy (tested on THP-1) of Cc1nc2c(C(F)(F)F)cccn2c1-c1cccc(Oc2cccc(S(C)(=O)=O)c2)c1
stdout: 99

stdin: Please state recorded Efficacy (tested on THP-1) of CCc1nc2c(C(F)(F)F)cccn2c1-c1cccc(Oc2cccc(S(C)(=O)=O)c2)c1
stdout: 65

====

- Experiment summary: Half life in mouse liver microsomes
- Assay type: ADME, Microsome
Property: half-life (min)

CS(=O)(=O)c1cccc(Oc2cccc(-c3c(CN4CCCCC4)nc4c(C(F)(F)F)cccn34)c2)c1 | 2

a. CS(=O)(=O)c1cccc(Oc2cccc(-c3c(CN4CCSC4)nc4c(C(F)(F)F)cccn34)c2)c1
b. Cc1nc2c(C(F)(F)F)cccn2c1-c1cccc(Oc2cccc(S(C)(=O)=O)c2)c1
stdin: Looking only at measured half-life, which entry is lower, a or b ? Give the chosen item's label as your response.
stdout: a
(a: 3 min, b: 30 min)

====

- Experiment summary: Half life in C57 mouse at 10 mg/kg, po
- Assay type: ADME, organism-based
- Parameters: dose 10 mg/kg, route oral
- Measurement conditions: in vivo
Property: half-life (h)

Cc1nc2c(C(F)(F)F)cccn2c1-c1cccc(Oc2cccc(S(C)(=O)=O)c2)c1 | 4.5
CCS(=O)(=O)c1cccc(Oc2cccc(-c3c(C)nc4c(C(F)(F)F)cccn34)c2)c1 | 6.1

====

- Experiment summary: Tmax in C57 mouse at 10 mg/kg, po
- Format: ADME, organism-based
- Parameters: dose 10 mg/kg, route oral
- Measurement conditions: in vivo
Property: Tmax (h)

I. CCS(=O)(=O)c1cccc(Oc2cccc(-c3c(C)nc4c(C(F)(F)F)cccn34)c2)c1
II. Cc1nc2c(C(F)(F)F)cccn2c1-c1cccc(Oc2cccc(S(C)(=O)=O)c2)c1
III. Cc1nc2c(C(F)(F)F)cccc2n1-c1cccc(Oc2cccc(S(C)(=O)=O)c2)c1
stdin: Please order the records by their reported Tmax, lowest number first. Show the ranking through the labels, in the order asked for.
stdout: II, I, III

====

- Experiment summary: Solubility of the compound
- Assay type: physicochemical
Property: solubility (µg/mL)

The following molecules have reported results that may help.
Cc1nc2c(C(F)(F)F)cccc2n1-c1cccc(Oc2cccc(S(C)(=O)=O)c2)c1 | 214
CCc1nc2c(C(F)(F)F)cccn2c1-c1cccc(Oc2cccc(S(C)(=O)=O)c2)c1 | 228

1. CS(=O)(=O)c1cccc(Oc2cccc(-c3c(CN4CCSC4)nc4c(C(F)(F)F)cccn34)c2)c1
2. CS(=O)(=O)c1cccc(Oc2cccc(-c3c(CN4CCCCC4)nc4c(C(F)(F)F)cccn34)c2)c1
stdin: Lab note: check whether 1 or 2 shows the higher recorded solubility. Give the chosen item's label as your response.
stdout: 2

====

- Tested on: HepG2
- Experiment summary: cells
- Measurement conditions: Homo sapiens
pEC50: −log10 of the molar value.
Property: pEC50

CS(=O)(=O)c1cccc(Oc2cccc(-c3c(Cc4ccccc4)nc4c(C(F)(F)F)cccn34)c2)c1 | 7.19
Cc1nc2c(C(F)(F)F)cccn2c1-c1cccc(Oc2cccc(S(C)(=O)=O)c2)c1 | 7.14
CS(=O)(=O)c1cccc(Oc2cccc(-c3c(CN4CCCCC4)nc4c(C(F)(F)F)cccn34)c2)c1 | 6.89

I. CCc1nc2c(C(F)(F)F)cccn2c1-c1cccc(Oc2cccc(S(C)(=O)=O)c2)c1
II. CS(=O)(=O)c1cccc(Oc2cccc(-c3c(CN4CCSC4)nc4c(C(F)(F)F)cccn34)c2)c1
stdin: Lab note: check whether I or II shows the higher recorded pEC50. Give the chosen item's label as your response.
stdout: II
(II: 7.38, I: 6.64)

====

- Experiment summary: AUC (0 to last) in C57 mouse at 10 mg/kg, po
- Type: ADME, organism-based
- Parameters: dose 10 mg/kg, route oral, time 0 - last
- Measurement conditions: plasma
Property: AUC(0-t) (ng·h/mL)

CCS(=O)(=O)c1cccc(Oc2cccc(-c3c(C)nc4c(C(F)(F)F)cccn34)c2)c1 | 7790

I. Cc1nc2c(C(F)(F)F)cccc2n1-c1cccc(Oc2cccc(S(C)(=O)=O)c2)c1
II. Cc1nc2c(C(F)(F)F)cccn2c1-c1cccc(Oc2cccc(S(C)(=O)=O)c2)c1
stdin: Looking only at measured AUC(0-t), which entry is lower, I or II ? Give the chosen item's label as your response.
stdout: II

====

- Experiment summary: Solubility of the compound
- Format: physicochemical
Property: solubility (µg/mL)

A. CS(=O)(=O)c1cccc(Oc2cccc(-c3c(Cc4ccccc4)nc4c(C(F)(F)F)cccn34)c2)c1
B. CCS(=O)(=O)c1cccc(Oc2cccc(-c3c(C)nc4c(C(F)(F)F)cccn34)c2)c1
stdin: Lab note: check whether A or B shows the higher recorded solubility. Give the chosen item's label as your response.
stdout: B
(B: 68 µg/mL, A: 3 µg/mL)

====

- Experiment summary: Half life in mouse liver microsomes
- Format: ADME, Microsome
Property: half-life (min)

The following compounds have reported results that may help.
CS(=O)(=O)c1cccc(Oc2cccc(-c3c(Cc4ccccc4)nc4c(C(F)(F)F)cccn34)c2)c1 | 2
O=S(=O)(c1ccccc1)N(CC(F)(F)F)c1ccc(C(O)(C(F)(F)F)C(F)(F)F)cc1 | 30

A. CCS(=O)(=O)c1cccc(Oc2cccc(-c3c(C)nc4c(C(F)(F)F)cccn34)c2)c1
B. CCc1nc2c(C(F)(F)F)cccn2c1-c1cccc(Oc2cccc(S(C)(=O)=O)c2)c1
stdin: Looking only at measured half-life, which entry is lower, A or B ? Give the chosen item's label as your response.
stdout: B
(B: 20 min, A: 30 min)

====

- Experiment summary: Cmax in C57 mouse at 2.5 mg/kg, po
- Format: ADME, organism-based
- Parameters: dose 2.5 mg/kg, route oral
- Measurement conditions: in vivo
Property: Cmax (ng/mL)
Record the value in ng/mL, omitting the unit from your answer.

stdin: Value lookup for Cmax; key = Cc1cnc2c(C(F)(F)F)cccc2c1-c1cccc(Oc2cccc(S(C)(=O)=O)c2)c1
stdout: 457

====

- Experiment summary: Tmax in C57 mouse at 2.5 mg/kg, po
- Assay type: ADME, organism-based
- Set-up: dose 2.5 mg/kg, route oral
- Measurement conditions: in vivo
Property: Tmax (h)
Record the value in h, omitting the unit from your answer.

stdin: Value lookup for Tmax; key = Cc1cnc2c(C(F)(F)F)cccc2c1-c1cccc(Oc2cccc(S(C)(=O)=O)c2)c1
stdout: 2

====

- Experiment summary: Cmax in C57 mouse at 10 mg/kg, po
- Type: ADME, organism-based
- Design: dose 10 mg/kg, route oral
- Measurement conditions: in vivo
Property: Cmax (ng/mL)

CCS(=O)(=O)c1cccc(Oc2cccc(-c3c(C)nc4c(C(F)(F)F)cccn34)c2)c1 | 1420

I. Cc1nc2c(C(F)(F)F)cccc2n1-c1cccc(Oc2cccc(S(C)(=O)=O)c2)c1
II. Cc1nc2c(C(F)(F)F)cccn2c1-c1cccc(Oc2cccc(S(C)(=O)=O)c2)c1
stdin: Lab note: check whether I or II shows the higher recorded Cmax. Give the chosen item's label as your response.
stdout: II
